- Test system: Enterococcus sp.
- ASSAY DETAILS: In vitro antibacterial evaluation: minimum inhibitory concentration (MIC), broth dilution method
- Assay type: cell-based
- TEST PARAMETERS: broth dilution, inoculum 5×10^5 CFU/mL, 18 hours at 35° C.
QUANTITY KIND: MIC Enterococcus avium (GC 4558) (µg/mL)
Output spec: scalar in µg/mL, unitless text.

| MOLECULE | MIC Enterococcus avium (GC 4558), µg/mL |
| --- | --- |
| N=C1NCC(C(O)C2NC(=O)C(Cc3ccc(OC4OC(CO)C(OC5OC6COC7(OC6C(O)C5O)C5CC6CC(C5)CC7C6)C(O)C4O)cc3)NC(=O)C(Cc3ccccc3)NC(=O)CNC(=O)C(CO)NC(=O)C(C(O)C3CNC(=N)N3C3OC(CO)C(O)C(O)C3O)NC2=O)N1 (stereo not shown) [Example 220] | 2 |
| Cc1ccc(Oc2cccc(C3OCC4OC(OC5C(CO)OC(Oc6ccc(CC7NC(=O)C(C(C)c8ccccc8)NC(=O)CNC(=O)C(CO)NC(=O)C(C(O)C8CNC(=N)N8C8OC(CO)C(O)C(O)C8O)NC(=O)C(C(O)C8CNC(=N)N8)NC7=O)cc6I)C(O)C5O)C(O)C(O)C4O3)c2)cc1 (stereo not shown) [Example 197] | 16 |
| CC(c1ccccc1)C1NC(=O)CNC(=O)C(CO)NC(=O)C(C(O)C2CNC(=N)N2C2OC(CO)C(O)C(O)C2O)NC(=O)C(C(O)C2CNC(=N)N2)NC(=O)C(Cc2ccc(OC3OC(CO)C(OC4OC5COC(c6ccc(C(=O)c7ccc(I)cc7)cc6)OC5C(O)C4O)C(O)C3O)cc2)NC1=O (stereo not shown) [Example 186] | 2 |

Prompt: What value of measured MIC Enterococcus avium (GC 4558) is listed for CC(c1ccccc1)C1NC(=O)CNC(=O)C(CO)NC(=O)C(C(O)C2CNC(=N)N2C2OC(CO)C(O)C(O)C2O)NC(=O)C(C(O)C2CNC(=N)N2)NC(=O)C(Cc2ccc(OC3OC(CO)C(OC4OC(CO)C(O)C5OC6(CCCCCCCCCCCC6)OC45)C(O)C3O)cc2)NC1=O (stereo not shown) [Example 210a] ?
Completion: 4

Prompt: Further, for CC(c1ccc(Cl)cc1)C1NC(=O)CNC(=O)C(CO)NC(=O)C(C(O)C2CNC(=N)N2C2OC(CO)C(O)C(O)C2O)NC(=O)C(C(O)C2CNC(=N)N2)NC(=O)C(Cc2ccc(OC3OC(CO)C(OC4OC5COC(C6CCCCC6)OC5C(O)C4O)C(O)C3O)cc2)NC1=O (stereo not shown) [Example 193] ?
Completion: 2

Prompt: # repeat for CC(c1ccccc1)C1NC(=O)CNC(=O)C(CO)NC(=O)C(C(O)C2CNC(=N)N2C2OC(CO)C(O)C(O)C2O)NC(=O)C(C(O)C2CNC(=N)N2)NC(=O)C(Cc2ccc(OC3OC(CO)C(OC4OC5COC6(CCCCC6)OC5C(O)C4O)C(O)C3O)cc2)NC1=O (stereo not shown) [Example 203]
Completion: 8

Prompt: Lookup CC(c1ccccc1)C1NC(=O)CNC(=O)C(CO)NC(=O)C(C(O)C2CNC(=N)N2C2OC(CO)C(O)C(O)C2O)NC(=O)C(C(O)C2CNC(=N)N2)NC(=O)C(Cc2ccc(OC3OC(CO)C(OC4OC5COC6(CCC(C(C)(C)C)CC6)OC5C(O)C4O)C(O)C3O)cc2)NC1=O (stereo not shown) [Example 208]
Completion: 4
